// reported Dmax for each item listed
# target entity: CDK2 (Homo sapiens (Human))
# assay summary: CDK2 NanoBiT assay (HiBiT-tagged CDK2 degradation)
# Assay type: cell-based
# condition notes: HEK293, HEK293 clonal line, C-terminal HiBiT tag on CDK2, LgBiT; 24 hours

// worked examples, Dmax included
>>> print(df.to_string())
                                   molecule                target_entity  measured_result
0  CN(C(=O)C12CC(OC(=O)NC3CN(c4cc(F)c(C5CCC(=O)NC5=O)c(F)c4)C3)(C1)C2)c1cccc(Cl)c1 (stereo not drawn) [Compound 131]  CDK2 (Homo sapiens (Human))        50 to 80%
1  COC12CC(c3nnc(N[C@H]4CN(c5cc(F)c(C6CCC(=O)NC6=O)c(F)c5)[C@@H]4C)o3)(C1)C2 (stereo partly drawn) [Compound 139]  CDK2 (Homo sapiens (Human))        50 to 80%
2  Cc1cc(N2CC(NC(=O)OC3CN(C(=O)N(C)C4CC4)C3)C2)cc(Cl)c1C1CCC(=O)NC1=O (stereo not drawn) [Compound 87]  CDK2 (Homo sapiens (Human))        50 to 80%
3  O=C1CCC(c2c(F)cc(N3C[C@H](Nc4nnc(C5CC6(CCC6)C5)o4)CC3=O)cc2F)C(=O)N1 (stereo partly drawn) [Compound 92]  CDK2 (Homo sapiens (Human))        50 to 80%
4  CC(C)O[C@H]1C[C@@H](OC(=O)NC2CN(c3cc(F)c(C4CCC(=O)NC4=O)c(F)c3)C2)C1 (stereo partly drawn) [Compound 39]  CDK2 (Homo sapiens (Human))        50 to 80%

Returns the measured Dmax for the input molecule. Input: O=C1CCC(c2ccc(N3CC(NC(=O)OCC4CC5(CCC5)C4)C3)cc2F)C(=O)N1 (stereo not drawn) [Compound 59]
> 80%

* * *

pKi: −log10 of the molar value.
Quick record: pKi, CRBN-DDB1 (Homo sapiens (Human)).

// worked examples, pKi included
>>> df
                                   compound                     target_entity  measured_result
0  Cc1cccc(N(C)C(=O)C23CC(OC(=O)NC4CN(c5cc(F)c(C6CCC(=O)NC6=O)c(F)c5)C4)(C2)C3)c1C (stereo not shown)  CRBN-DDB1 (Homo sapiens (Human))           ≥ 7.00
1  [2H]C([2H])([2H])N(C(=O)N1CC(OC(=O)NC2CN(c3cc(F)c(C4CCC(=O)NC4=O)c(F)c3)C2)C1)c1ccc(Cl)cc1 (stereo not shown)  CRBN-DDB1 (Homo sapiens (Human))           ≥ 7.00
2  C[C@@H]1[C@@H](Nc2nnc(-c3ccc(C(F)(F)F)cc3)o2)CN1c1cc(F)c(C2CCC(=O)NC2=O)c(F)c1 (stereo partly shown)  CRBN-DDB1 (Homo sapiens (Human))     6.00 to 7.00
3  CN(C(=O)C12CC(OC(=O)NC3CN(c4cc(F)c(C5CCC(=O)NC5=O)c(F)c4)C3)(C1)C2)c1ccc(Cl)cc1 (stereo not shown)  CRBN-DDB1 (Homo sapiens (Human))           ≥ 7.00
4  Cc1ccc(-c2nnc(NC3CN(c4cc(F)c(C5CCC(=O)NC5=O)c(F)c4)C3)o2)cc1 (stereo not shown)  CRBN-DDB1 (Homo sapiens (Human))     6.00 to 7.00

// fetch CRBN-DDB1 (Homo sapiens (Human)) pKi for O=C1CCC(c2c(F)cc(N3CC(Nc4nnc(C5CC6(CCC6)C5)o4)C3)cc2F)C(=O)N1 (stereo not shown)
≥ 7.00

// fetch CRBN-DDB1 (Homo sapiens (Human)) pKi for O=C1CCC(c2c(F)cc(N3CC(NC(=O)OC[C@@H]4C[C@H]5CC[C@@H]4C5)C3)cc2F)C(=O)N1 (stereo partly shown)
≥ 7.00
